Origin of the recorded values: patent US10343977B2

Biological target: PPARγ (Homo sapiens, UniProt P37231)
Sequence (P37231 whole entry): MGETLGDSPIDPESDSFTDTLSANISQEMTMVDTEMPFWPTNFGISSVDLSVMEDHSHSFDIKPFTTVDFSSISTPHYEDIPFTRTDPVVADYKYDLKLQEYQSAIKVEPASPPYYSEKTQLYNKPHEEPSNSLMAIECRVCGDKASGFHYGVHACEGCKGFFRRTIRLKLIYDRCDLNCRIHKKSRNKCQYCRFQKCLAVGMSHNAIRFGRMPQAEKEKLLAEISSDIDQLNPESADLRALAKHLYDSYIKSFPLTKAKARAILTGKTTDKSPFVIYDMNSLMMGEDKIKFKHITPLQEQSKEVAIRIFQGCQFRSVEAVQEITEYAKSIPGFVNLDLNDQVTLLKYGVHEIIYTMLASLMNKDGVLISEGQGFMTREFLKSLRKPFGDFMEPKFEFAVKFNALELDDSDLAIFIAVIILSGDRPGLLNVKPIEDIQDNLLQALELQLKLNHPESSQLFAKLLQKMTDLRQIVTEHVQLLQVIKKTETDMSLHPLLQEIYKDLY
Assay: PPARγ reporter assay (INDIGO Biosciences)
Format: cell-based
Details: 20 h, read-out: PPARγ % rosiglitazone (500 nM), 12.5 μM test compound; luciferase reporter cells, 20 hours; activity compared to rosiglitazone
Assay endpoint: Emax at 12.5 µM (%)

[a] CC(C)CCC(=O)[C@@]1(OC(=O)CC(C)(C)C)C(O)=C(C(=O)CC(C)C)C(=O)[C@@H]1CCC(C)C [KDT0034]
[b] C#CCCOC(=O)O[C@]1(C(=O)CCC(C)C)C(O)=C(C(=O)CC(C)C)C(=O)[C@@H]1CCC(C)C [KDT0035]
Could you tell me which of these two has the smaller Emax at 12.5 µM figure? First: a Second: b Respond using the label that marks the chosen record.
a

====

Test system: LPS-mediated MCP-1 production in THP-1 cells
Assay: LPS-mediated MCP-1 production in THP-1 cells
Format: cell-based
Conditions: Homo sapiens; 12.5 μM test compound; THP-1 cells, LPS 1 μg/ml; NI = no inhibition
inhibition at 12.5 µM values, listed per item
Return type: number; implicit unit %.

Molecule	Target system	inhibition at 12.5 µM (%)
CCCCCCCCCC(=O)O[C@]1(C(=O)CCC(C)C)C(O)=C(C(=O)C(C)C)C(=O)[C@@H]1CCC(C)C [KDT0036]	LPS-mediated MCP-1 production in THP-1 cells	98
CC(C)CCC(=O)[C@@]1(O)C([O-])=C(C(=O)CC(C)C)C(=O)[C@@H]1CCC(C)C.[K+] (stereo in doubt) [KDT501, Potassium salt of (+)-KDT500]	LPS-mediated MCP-1 production in THP-1 cells	77
CC(C)=CC[C@H]1C(=O)C(C(=O)CC(C)C)=C(O)[C@]1(O)C(=O)/C=C/C(C)(C)O [KDT0040]	LPS-mediated MCP-1 production in THP-1 cells	53
CC(C)CCC(=O)[C@@]1(OC(=O)OCC(C)C)C(O)=C(C(=O)C(C)C)C(=O)[C@@H]1CCC(C)C [KDT0037]	LPS-mediated MCP-1 production in THP-1 cells	98
CN/C(CC(C)C)=C1\C(=O)[C@H](CCC(C)C)[C@@](O)(C(=O)CCC(C)C)C1=O [KDT0020]	LPS-mediated MCP-1 production in THP-1 cells	82
CC(C)CCC(=O)[C@@]1(O)C(=O)/C(=C(\CC(C)C)NCCO)C(=O)[C@@H]1CCC(C)C [KDT0017]	LPS-mediated MCP-1 production in THP-1 cells	80

Entry CO/N=C(/CC(C)C)C1=C(O)[C@](O)(C(O)CCC(C)C)[C@@H](CCC(C)C)C1=O (stereo partly shown) [KDT0005] , system LPS-mediated MCP-1 production in THP-1 cells: what inhibition at 12.5 µM was measured?
38

====

Tested on: LPS-mediated MCP-1 production in THP-1 cells
Assay: LPS-mediated MCP-1 production in THP-1 cells
Format: cell-based
Conditions: Homo sapiens; 12.5 μM test compound; THP-1 cells, LPS 1 μg/ml; NI = no inhibition
Description: THIAA derivatives synthesized in Examples 1-19 were dissolved in dimethyl sufoxide (DMSO) and stored at −20° C. LPS was purchased from Sigma Chemicals (St. Louis, Miss.). The effect of the THIAA derivatives on LPS-mediated MMP-9, IL-1β, ([…], MCP-1, RANTES, and MIP-1α was evaluated in THP-1 cells. Stimulation of THP-1 cells with LPS (1 μg/ml) activated the production of MMP-9, IL-1β, MCP-1, RANTES, and MIP-1α. […]
Below: a set of entries, each annotated with reported inhibition at 12.5 µM.
State the answer as a number, implicitly in %.

Some molecules with recorded inhibition at 12.5 µM:
> print(dat)
                                   molecule  uom  result.value
1  CC(C)CCC(=O)[C@@]1(O)C(=O)/C(=C(\CC(C)C)NCc2ccccc2)C(=O)[C@@H]1CCC(C)C    %            80
2  CC(C)CCC(O)[C@@]1(O)C(O)=C(C(=O)CC(C)C)C(=O)[C@@H]1CCC(C)C (stereo partly shown)    %            50
3  CC(C)CCC(=O)[C@@]1(O)C(O)=C(C(=O)C(C)C)C(=O)[C@@H]1CCC(C)C    %            61

Turning now to a further molecule:
Requested field: inhibition at 12.5 µM. Item: `CC(C)CCC(=O)[C@@]1(OC(=O)C(C)(C)C)C(O)=C(C(=O)CC(C)C)C(=O)[C@@H]1CCC(C)C`
100
